- target: XIAP bir3 domain (GST-XIAP BIR3RING) (Homo sapiens)
- method-description: Fluorescence polarization-based competition assay, XIAP
- run-conditions: Ki calculated from displacement of fluorescent probe; read-out: Fluorescent polarization (FP) assay Xiap
pKi: −log10 of the molar value.
Let's look at some compounds and their measured pKi.

# input Give the reported pKi for CN[C@@H](C)C(=O)N[C@@H](COCc1ccc(-c2ccc(COC[C@H](NC(=O)[C@H](C)NC)C(=O)N3CCC[C@H]3CN(CCc3ccccc3)C(=O)C(F)(F)F)cc2)cc1)C(=O)N1CCC[C@H]1CN(CCc1ccccc1)C(=O)C(F)(F)F (system: XIAP bir3 domain (GST-XIAP BIR3RING) (Homo sapiens)).
# output ≤ 7.00

# input // same read-out, input: CN[C@@H](C)C(=O)N[C@H](C(=O)N1CCC[C@H]1CN(CCc1ccccc1)C(=O)C(F)(F)F)[C@@H](C)OCC#CC#CCO[C@H](C)[C@H](NC(=O)[C@H](C)NC)C(=O)N1CCC[C@H]1CN(CCc1ccccc1)C(=O)C(F)(F)F
# output ≥ 7.00

---

Let's look at some compounds and their measured Ki.
- target: XIAP bir3 domain (GST-XIAP BIR3RING) (Homo sapiens, UniProt P98170)
- Sequence (P98170 246-497): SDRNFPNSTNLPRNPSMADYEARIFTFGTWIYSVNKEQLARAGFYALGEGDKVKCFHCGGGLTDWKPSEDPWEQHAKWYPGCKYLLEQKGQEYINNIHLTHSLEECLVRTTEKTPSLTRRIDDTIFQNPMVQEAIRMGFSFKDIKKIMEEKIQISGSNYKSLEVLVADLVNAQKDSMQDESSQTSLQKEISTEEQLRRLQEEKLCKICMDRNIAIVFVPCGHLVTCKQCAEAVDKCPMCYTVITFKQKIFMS
- method-description: Fluorescence polarization-based competition assay, XIAP
- run-conditions: Ki calculated from displacement of fluorescent probe; read-out: Fluorescent polarization (FP) assay Xiap

Example entries begin here.
| smiles-notation | parameter | test-value |
| --- | --- | --- |
| CN[C@@H](C)C(=O)N[C@H](C(=O)N1CCC[C@H]1CN(CCc1ccccc1)S(=O)(=O)Cc1ccccc1)[C@@H](C)OCC#CC#CCO[C@H](C)[C@H](NC(=O)[C@H](C)NC)C(=O)N1CCC[C@H]1CN(CCc1ccccc1)S(=O)(=O)Cc1ccccc1 | Ki | ≤ 5 nM |
| CN[C@@H](C)C(=O)N[C@H](C(=O)N1CCC[C@H]1CN(CCc1ccccc1)S(=O)(=O)c1ccccc1)[C@@H](C)OCC#CC#CCO[C@H](C)[C@H](NC(=O)[C@H](C)NC)C(=O)N1CCC[C@H]1CN(CCc1ccccc1)S(=O)(=O)c1ccccc1 | Ki | ≤ 5 nM |

# input Using the record for CN[C@@H](C)C(=O)N[C@H](C(=O)N1CCC[C@H]1CN(CCc1ccccc1)C(=O)c1ccccc1)[C@@H](C)OCC#CC#CCO[C@H](C)[C@H](NC(=O)[C@H](C)NC)C(=O)N1CCC[C@H]1CN(CCc1ccccc1)C(=O)c1ccccc1 , report its Ki.
# output ≤ 100 nM

---

- target: XIAP L-Bir2-Bir3 (GST-XIAP Linker Bir2Bir3RING fusion protein) (Homo sapiens, UniProt P98170)
- Construct: made in house; host or cells: E. coli DH5-alpha
- Sequence (P98170 93-497): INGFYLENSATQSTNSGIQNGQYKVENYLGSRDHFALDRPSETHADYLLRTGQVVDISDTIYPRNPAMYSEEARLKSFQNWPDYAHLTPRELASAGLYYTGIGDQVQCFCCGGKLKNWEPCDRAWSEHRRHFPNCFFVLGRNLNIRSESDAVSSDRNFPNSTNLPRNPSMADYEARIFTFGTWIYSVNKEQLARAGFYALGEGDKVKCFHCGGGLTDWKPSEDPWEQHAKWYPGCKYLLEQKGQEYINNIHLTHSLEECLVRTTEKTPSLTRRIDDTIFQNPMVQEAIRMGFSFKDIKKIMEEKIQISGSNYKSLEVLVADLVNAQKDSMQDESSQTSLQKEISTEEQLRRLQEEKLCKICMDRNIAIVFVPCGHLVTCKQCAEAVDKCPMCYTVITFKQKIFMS
- method-description: Caspase de-repression assay using cellular extracts (apoptosome), L-Bir2-Bir3 XIAP
- Type: biochemical
- run-conditions: 293 cell S100 extract; effective concentration to achieve 50% of activation
Let's look at some compounds and their measured IC50.

| smiles-notation | test-value |
| --- | --- |
| CN[C@@H](C)C(=O)N[C@H](C(=O)N1CCC[C@H]1CN(CCc1ccccc1)C(=O)OCc1ccccc1)[C@@H](C)OCC#CC#CCO[C@H](C)[C@H](NC(=O)[C@H](C)NC)C(=O)N1CCC[C@H]1CN(CCc1ccccc1)C(=O)OCc1ccccc1 | ≤ 500 nM |
| CN[C@@H](C)C(=O)N[C@H](C(=O)N1CCC[C@H]1C(=O)N[C@@H]1CCCc2ccccc21)[C@@H](C)OCC#CC#CCO[C@H](C)[C@H](NC(=O)[C@H](C)NC)C(=O)N1CCC[C@H]1C(=O)N[C@@H]1CCCc2ccccc21 | ≤ 500 nM |
| CN[C@@H](C)C(=O)N[C@H](C(=O)N1CCC[C@H]1CN(CCc1ccccc1)C(=O)C(F)(F)F)[C@@H](C)OCC#CC#CCO[C@H](C)[C@H](NC(=O)[C@H](C)NC)C(=O)N1CCC[C@H]1CN(CCc1ccccc1)C(=O)C(F)(F)F | ≤ 100 nM |

# input Using the record for CN[C@@H](C)C(=O)N[C@H](C(=O)N1CCC[C@H]1CN(CCc1ccccc1)S(=O)(=O)c1ccccc1)[C@@H](C)OCC#CC#CCO[C@H](C)[C@H](NC(=O)[C@H](C)NC)C(=O)N1CCC[C@H]1CN(CCc1ccccc1)S(=O)(=O)c1ccccc1 , report its IC50.
# output ≤ 500 nM

# input // same read-out, input: CN[C@@H](C)C(=O)N[C@H](C(=O)N1CCC[C@H]1CN(CCc1ccccc1)S(=O)(=O)Cc1ccccc1)[C@@H](C)OCC#CC#CCO[C@H](C)[C@H](NC(=O)[C@H](C)NC)C(=O)N1CCC[C@H]1CN(CCc1ccccc1)S(=O)(=O)Cc1ccccc1
# output ≤ 500 nM

# input // same read-out, input: CN[C@@H](C)C(=O)N[C@@H](COCc1ccc(COC[C@H](NC(=O)[C@H](C)NC)C(=O)N2CCC[C@H]2CN(CCc2ccccc2)C(=O)C(F)(F)F)cc1)C(=O)N1CCC[C@H]1CN(CCc1ccccc1)C(=O)C(F)(F)F
# output ≥ 1000 nM

---

- target: cIAP-2 bir3 domain (GST-HIAP1(cIAP-2) BIR3) (Homo sapiens, UniProt Q13489)
- Sequence (Q13489 236-349): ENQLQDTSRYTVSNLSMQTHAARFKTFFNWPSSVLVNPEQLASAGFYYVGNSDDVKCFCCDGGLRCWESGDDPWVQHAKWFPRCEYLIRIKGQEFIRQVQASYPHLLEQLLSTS
- method-description: Fluorescence polarization-based competition assay, cIAP-2
- run-conditions: Ki calculated from displacement of fluorescent probe; read-out: Fluorescent polarization (FP) assay cIAP-2
parameter: Ki

| smiles-notation | test-value |
| --- | --- |
| CN[C@@H](C)C(=O)N[C@H](C(=O)N1CCC[C@H]1C(=O)N[C@@H]1CCCc2ccccc21)[C@@H](C)OCC#CC#CCO[C@H](C)[C@H](NC(=O)[C@H](C)NC)C(=O)N1CCC[C@H]1C(=O)N[C@@H]1CCCc2ccccc21 | ≤ 100 nM |

Now take the following compound into account.
# input Using the record for CN[C@@H](C)C(=O)N[C@H](C(=O)N1CCC[C@H]1CN(CCc1ccccc1)C(=O)C(F)(F)F)[C@@H](C)OCC#CC#CCO[C@H](C)[C@H](NC(=O)[C@H](C)NC)C(=O)N1CCC[C@H]1CN(CCc1ccccc1)C(=O)C(F)(F)F , report its Ki.
# output ≥ 100 nM

---

- target: XIAP L-Bir2-Bir3 (GST-XIAP Linker Bir2Bir3RING fusion protein) (Homo sapiens)
- method-description: Caspase de-repression assay using cellular extracts (apoptosome), L-Bir2-Bir3 XIAP
- run-conditions: 293 cell S100 extract; effective concentration to achieve 50% of activation
Let's look at some compounds and their measured IC50.

| smiles-notation | target | IC50 |
| --- | --- | --- |
| CN[C@@H](C)C(=O)N[C@H](C(=O)N1CCC[C@H]1CN(CCc1ccccc1)C(=O)[C@H](N)Cc1ccc(OC)cc1)[C@@H](C)OCC#CC#CCO[C@H](C)[C@H](NC(=O)[C@H](C)NC)C(=O)N1CCC[C@H]1CN(CCc1ccccc1)C(=O)[C@H](N)Cc1ccc(OC)cc1 | XIAP L-Bir2-Bir3 (GST-XIAP Linker Bir2Bir3RING fusion protein) (Homo sapiens) | ≤ 100 nM |

Now take the following compound into account.
# input Using the record for CN[C@@H](C)C(=O)N[C@H](C(=O)N1CCC[C@H]1CN(CCc1ccccc1)S(C)(=O)=O)[C@@H](C)OCC#CC#CCO[C@H](C)[C@H](NC(=O)[C@H](C)NC)C(=O)N1CCC[C@H]1CN(CCc1ccccc1)S(C)(=O)=O , report its IC50.
# output ≤ 500 nM

---

Let's look at some compounds and their measured pKi.
- target: XIAP bir3 domain (GST-XIAP BIR3RING) (Homo sapiens, UniProt P98170)
- method-description: Fluorescence polarization-based competition assay, XIAP
- run-conditions: Ki calculated from displacement of fluorescent probe; read-out: Fluorescent polarization (FP) assay Xiap
pKi: −log10 of the molar value.

| smiles-notation | pKi |
| --- | --- |
| CN[C@@H](C)C(=O)N[C@H](C(=O)N1CCC[C@H]1CN(CCc1ccccc1)S(C)(=O)=O)[C@@H](C)OCC#CC#CCO[C@H](C)[C@H](NC(=O)[C@H](C)NC)C(=O)N1CCC[C@H]1CN(CCc1ccccc1)S(C)(=O)=O | ≥ 8.30 |

# input Using the record for CN[C@@H](C)C(=O)N[C@@H](COC(=O)CCCCCC(=O)OC[C@H](NC(=O)[C@H](C)NC)C(=O)N1CCC[C@H]1CN(CCc1ccccc1)C(=O)c1ccccc1)C(=O)N1CCC[C@H]1CN(CCc1ccccc1)C(=O)c1ccccc1 , report its pKi.
# output ≥ 7.00

---

Let's look at some molecules and their measured pIC50.
- target: XIAP L-Bir2-Bir3 (GST-XIAP Linker Bir2Bir3RING fusion protein) (Homo sapiens, UniProt P98170)
- method-description: Caspase de-repression assay using cellular extracts (apoptosome), L-Bir2-Bir3 XIAP
- run-conditions: 293 cell S100 extract; effective concentration to achieve 50% of activation
- Protocol: GST-linker BIR2BIR3Ring: XIAP coding sequence from amino acids 93-497 cloned into PGex4T1 via BamH1 and XhoI. […] 100 ug of 293 cell S100 extract and 0.25 uM-2 uM of GST-XIAP fusion protein (XIAP-Bir3RING, XIAP-Linker Bir2Bir3RING, or full-length XIAP) were co-incubated with serial dilutions of compound (40 uM-5 pM). […] Caspase activity was calculated as Vo of AMC fluorescence/sec. […]
pIC50: −log10 of the molar value.

| molecule | pIC50 |
| --- | --- |
| CN[C@@H](C)C(=O)N[C@H](C(=O)N1CCC[C@H]1CN(CCc1ccccc1)C(=O)c1ccccc1)[C@@H](C)OCC#CC#CCO[C@H](C)[C@H](NC(=O)[C@H](C)NC)C(=O)N1CCC[C@H]1CN(CCc1ccccc1)C(=O)c1ccccc1 [Compound 3] | ≥ 6.30 |

Now take the following molecule into account.
# input Using the record for CN[C@@H](C)C(=O)N[C@@H](COCc1ccc(-c2ccc(COC[C@H](NC(=O)[C@H](C)NC)C(=O)N3CCC[C@H]3CN(CCc3ccccc3)C(=O)C(F)(F)F)cc2)cc1)C(=O)N1CCC[C@H]1CN(CCc1ccccc1)C(=O)C(F)(F)F [Compound 12] , report its pIC50.
# output ≤ 6.00
